- ASSAYED SYSTEM: Grb2 SH2 (UniProt P62993)
- PROCEDURE SUMMARY: SH2 binding enrichment of the phosphorylated peptide, bacterial display (enrichment ratio); higher = better substrate or ligand; peptides without Tyr show the background
MEASUREMENT LABEL: SH2 binding enrichment

Some sequences with known SH2 binding enrichment results, for comparison:
KVALLYKPYFY [POLE_Y100_P99L]
1.43
LPVHFYSHVEH [PYGM_Y204_G205S]
0.964
ETVHRYVELLD [AP1S3_Y87_I83T]
0.929
RQNQEYEILMD [KRT39_Y379_L383M]
0.843
SYCYRYRCAAQ [SUMF1_Y344_R349Q]
1.42
SSMIDYKPLEK [MYOC_Y479_N480K]
1.19
SIRYNYLLDVL [FGFR4_Y237]
0.789
SSTASYFEAPG [RFX2_Y108]
0.862

1 = RRESPYGGGGG [FUS_Y526_R524S]
2 = LIFVSYDDWDY [GRIN2A_Y281_S278F]
I'd appreciate it if you could identify which of 1 and 2 has the greater SH2 binding enrichment. Please indicate the selected item by its label.
2
(2: 1.38, 1: 0.907)

A = SLALFYRKVFH [RBL1_Y792_YF]
B = FTFTSYFMHWV [IGHV1-46_Y51_YF]
Min SH2 binding enrichment? A | B Please indicate the selected item by its label.
A
(A: 0.767, B: 1.71)

A = TLARLYHRDST [LRIG1_Y1029_P1031R]
B = GDPTEYYITAI [IGSF22_Y501_S503I]
Min SH2 binding enrichment? A | B Please indicate the selected item by its label.
B
(B: 0.647, A: 0.963)

P = GPRKAYELSQR [SETX_Y1297]
Q = CTTIHYNFMCF [TP53_Y234_N239Y_YF]
I'd appreciate it if you could identify which of P and Q has the greater SH2 binding enrichment. Please indicate the selected item by its label.
Q

A = DVQNAYDSNHC [ZFYVE16_Y36]
B = PLQSEYSSITT [ITGB4_Y1760]
I'd appreciate it if you could identify which of A and B has the greater SH2 binding enrichment. Please indicate the selected item by its label.
A
(A: 1.06, B: 0.696)

----------
- ASSAYED SYSTEM: c-Src SH2
- PROCEDURE SUMMARY: SH2 binding enrichment of the phosphorylated peptide, bacterial display (enrichment ratio); higher = better substrate or ligand; peptides without Tyr show the background
MEASUREMENT LABEL: SH2 binding enrichment

RFQKLYLDRNL [IGFALS_Y248_L244F]
0.463
EARRVYGDIIF [ALDH5A1_Y175_H180Y_YF]
0.485
KMKGDYFCFLA [YWHAG_Y130_R132C_YF]
0.668
HLEKKYVHRDS [CSF1R_Y708_R710H]
0.659
TIMTDYNPNFC [ALK_Y1092_YF]
0.633

A = SVMAEYGLFRA [VSX2_Y219_G223R_YF]
B = SYCYRYRCAAQ [SUMF1_Y344_R349Q]
Min SH2 binding enrichment? A | B Please indicate the selected item by its label.
A

I = ACQGKYTPSGQ [ALDOA_Y343]
II = TRSYKYLLLSM [NF1_Y491]
I'd appreciate it if you could identify which of I and II has the greater SH2 binding enrichment. Please indicate the selected item by its label.
II
(II: 1.15, I: 0.551)

----------
- ASSAYED SYSTEM: Fyn (UniProt P06241)
- Sequence (P06241 whole entry, looked up): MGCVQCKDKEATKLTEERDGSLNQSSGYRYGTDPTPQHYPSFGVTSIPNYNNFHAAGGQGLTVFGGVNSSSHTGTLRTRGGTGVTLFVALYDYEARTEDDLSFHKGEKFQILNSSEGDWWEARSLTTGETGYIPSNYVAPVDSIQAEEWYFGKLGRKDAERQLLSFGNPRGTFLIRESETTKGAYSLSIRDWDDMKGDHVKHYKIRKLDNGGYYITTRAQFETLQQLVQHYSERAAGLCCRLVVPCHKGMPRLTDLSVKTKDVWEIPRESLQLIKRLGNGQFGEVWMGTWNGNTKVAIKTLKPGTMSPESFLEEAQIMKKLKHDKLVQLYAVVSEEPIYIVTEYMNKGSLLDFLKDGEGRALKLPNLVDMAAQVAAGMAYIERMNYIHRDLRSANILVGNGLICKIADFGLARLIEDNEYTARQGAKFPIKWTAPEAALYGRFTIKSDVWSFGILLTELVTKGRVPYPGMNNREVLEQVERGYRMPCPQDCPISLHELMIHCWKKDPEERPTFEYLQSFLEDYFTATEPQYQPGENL
- PROCEDURE SUMMARY: phosphorylation enrichment, bacterial display (enrichment ratio); higher = better substrate or ligand; peptides without Tyr show the background
MEASUREMENT LABEL: phosphorylation enrichment
Please give the numeric answer without any surrounding text.

YKGKNYKPLDL [RPL35_Y78_K77N]
0.334

--- query ---
Hello, I am looking for reported phosphorylation enrichment with Fyn (UniProt P06241) for KCLAVYQAGAR [APOE_Y180_R176C] . Could you help?
0.646

----------
Recorded phosphorylation enrichment, one value per entry.
- ASSAYED SYSTEM: Fyn (UniProt P06241)
- PROCEDURE SUMMARY: phosphorylation enrichment, bacterial display (enrichment ratio); higher = better substrate or ligand; peptides without Tyr show the background
Please give the numeric answer without any surrounding text.

# input sequence: SNFRAYATEPQ [TNNI3_Y29_H34Q_YF] ; wanted: its phosphorylation enrichment
0.427

# input sequence: SIKDKYVTVLF [KCNH2_Y611_A614V_YF] ; wanted: its phosphorylation enrichment
0.442

# input sequence: VFSSDYFSFVL [USP24_Y2138_YF] ; wanted: its phosphorylation enrichment
2.61

# input sequence: CDKEYYSVHNK [MET_Y1235_Y1230C] ; wanted: its phosphorylation enrichment
0.608

# input sequence: KLIETYSSKNY [PLP1_Y50_F51S] ; wanted: its phosphorylation enrichment
0.429

# input sequence: GPRKAYELSQR [SETX_Y1297] ; wanted: its phosphorylation enrichment
0.401

# input sequence: TISPYYRQSLF [CRYAA_Y48] ; wanted: its phosphorylation enrichment
0.414

----------
Recorded phosphorylation enrichment, one value per entry.
- System: AncSZ
- PROCEDURE SUMMARY: phosphorylation enrichment, bacterial display (enrichment ratio); higher = better substrate or ligand; peptides without Tyr show the background
Please give the numeric answer without any surrounding text.

Some sequences with known phosphorylation enrichment results, for comparison:
NPIGLYSAEIL [LDB3_Y202_T206I]
0.751
KQELVYTNKKL [OPTN_Y356]
0.69
SEKVVYRRFTE [NCF1_Y41]
0.663

--- query ---
# input sequence: CTTLHYNYMCN [TP53_Y234_I232L] ; wanted: its phosphorylation enrichment
0.858

----------
- System: c-Abl (mouse)
- PROCEDURE SUMMARY: phosphorylation enrichment, bacterial display (enrichment ratio); higher = better substrate or ligand; peptides without Tyr show the background
Recorded phosphorylation enrichment, one value per entry.
Please give the numeric answer without any surrounding text.

Some sequences with known phosphorylation enrichment results, for comparison:
LLVVLYKFRCF [PSEN1_Y154_Y159F_YF]
1.77
IRTDAYVPAMT [RPE65_Y89_R91P]
0.594
EIIPFYGMSTY [FNDC3B_Y175]
0.818

# input sequence: YLQEIYNSNNQ [FGG_Y140] ; wanted: its phosphorylation enrichment
0.692

# input sequence: CENNRYGMGAS [PDHA1_Y227_T231A] ; wanted: its phosphorylation enrichment
0.594

----------
- ASSAYED SYSTEM: FGFR1 (UniProt P11362)
- Sequence (P11362 whole entry, looked up): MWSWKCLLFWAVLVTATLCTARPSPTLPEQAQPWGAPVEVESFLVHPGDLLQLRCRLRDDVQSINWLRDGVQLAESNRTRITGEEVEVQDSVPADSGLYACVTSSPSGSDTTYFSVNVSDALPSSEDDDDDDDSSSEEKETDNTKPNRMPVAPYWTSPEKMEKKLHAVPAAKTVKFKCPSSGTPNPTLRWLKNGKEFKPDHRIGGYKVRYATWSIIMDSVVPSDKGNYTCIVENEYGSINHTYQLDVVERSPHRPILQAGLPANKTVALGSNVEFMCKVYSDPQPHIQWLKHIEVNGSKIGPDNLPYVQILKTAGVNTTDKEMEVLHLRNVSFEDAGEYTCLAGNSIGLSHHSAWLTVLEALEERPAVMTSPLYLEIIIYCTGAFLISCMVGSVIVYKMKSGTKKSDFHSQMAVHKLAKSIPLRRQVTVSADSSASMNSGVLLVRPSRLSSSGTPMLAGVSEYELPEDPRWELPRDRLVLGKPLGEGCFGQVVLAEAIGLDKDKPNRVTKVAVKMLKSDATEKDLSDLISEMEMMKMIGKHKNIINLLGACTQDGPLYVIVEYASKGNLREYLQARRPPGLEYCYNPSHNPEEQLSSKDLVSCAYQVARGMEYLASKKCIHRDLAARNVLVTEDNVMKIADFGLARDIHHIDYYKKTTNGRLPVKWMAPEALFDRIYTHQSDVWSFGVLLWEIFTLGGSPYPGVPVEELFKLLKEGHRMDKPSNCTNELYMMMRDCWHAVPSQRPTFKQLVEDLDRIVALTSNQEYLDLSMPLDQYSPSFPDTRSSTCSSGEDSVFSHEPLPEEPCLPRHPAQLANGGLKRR
- PROCEDURE SUMMARY: phosphorylation enrichment, bacterial display (enrichment ratio); higher = better substrate or ligand; peptides without Tyr show the background
MEASUREMENT LABEL: phosphorylation enrichment
Please give the numeric answer without any surrounding text.

TEFIQYMRRKN [MAX_Y73_YF]
0.367
GFITSYREEEQ
0.468
WDLTDYLMKIL [ACTB_Y188_R183W]
0.539
PAVGIYNGNIN [CDCP1_Y707_D709G]
0.396
SSTASYFEAPG [RFX2_Y108]
4.92
DRLAVCIDRVR [LMNA_Y45_Y45C]
0.467
TINPIHEHVGY [CHN1_Y143_Y143H]
0.426
QDRTYYERVRT [SPEN_Y633_S635R]
0.749

# input sequence: LRTAVYHEILI [CREBBP_Y1450] ; wanted: its phosphorylation enrichment
16.7

# input sequence: NEKNIYRVPLM [BMPR2_Y247] ; wanted: its phosphorylation enrichment
0.446

----------
- ASSAYED SYSTEM: Fyn (UniProt P06241)
- PROCEDURE SUMMARY: phosphorylation enrichment, bacterial display (enrichment ratio); higher = better substrate or ligand; peptides without Tyr show the background
MEASUREMENT LABEL: phosphorylation enrichment
Please give the numeric answer without any surrounding text.

# input sequence: VLTSKHRGGGG [HBA1_Y141_Y141H] ; wanted: its phosphorylation enrichment
0.527

# input sequence: PVPKTYDMLNA [PKP2_Y108_K112N] ; wanted: its phosphorylation enrichment
0.666

# input sequence: IDGLEYLHSQS [STK11_Y166_G171S] ; wanted: its phosphorylation enrichment
0.465

# input sequence: DLDLTSIFPNI [PTEN_Y27_Y27S_YF] ; wanted: its phosphorylation enrichment
0.475

# input sequence: RMDGTYACSYT [FLNB_Y704] ; wanted: its phosphorylation enrichment
1.87

----------
- ASSAYED SYSTEM: MERTK (UniProt Q12866)
- Sequence (Q12866 whole entry, looked up): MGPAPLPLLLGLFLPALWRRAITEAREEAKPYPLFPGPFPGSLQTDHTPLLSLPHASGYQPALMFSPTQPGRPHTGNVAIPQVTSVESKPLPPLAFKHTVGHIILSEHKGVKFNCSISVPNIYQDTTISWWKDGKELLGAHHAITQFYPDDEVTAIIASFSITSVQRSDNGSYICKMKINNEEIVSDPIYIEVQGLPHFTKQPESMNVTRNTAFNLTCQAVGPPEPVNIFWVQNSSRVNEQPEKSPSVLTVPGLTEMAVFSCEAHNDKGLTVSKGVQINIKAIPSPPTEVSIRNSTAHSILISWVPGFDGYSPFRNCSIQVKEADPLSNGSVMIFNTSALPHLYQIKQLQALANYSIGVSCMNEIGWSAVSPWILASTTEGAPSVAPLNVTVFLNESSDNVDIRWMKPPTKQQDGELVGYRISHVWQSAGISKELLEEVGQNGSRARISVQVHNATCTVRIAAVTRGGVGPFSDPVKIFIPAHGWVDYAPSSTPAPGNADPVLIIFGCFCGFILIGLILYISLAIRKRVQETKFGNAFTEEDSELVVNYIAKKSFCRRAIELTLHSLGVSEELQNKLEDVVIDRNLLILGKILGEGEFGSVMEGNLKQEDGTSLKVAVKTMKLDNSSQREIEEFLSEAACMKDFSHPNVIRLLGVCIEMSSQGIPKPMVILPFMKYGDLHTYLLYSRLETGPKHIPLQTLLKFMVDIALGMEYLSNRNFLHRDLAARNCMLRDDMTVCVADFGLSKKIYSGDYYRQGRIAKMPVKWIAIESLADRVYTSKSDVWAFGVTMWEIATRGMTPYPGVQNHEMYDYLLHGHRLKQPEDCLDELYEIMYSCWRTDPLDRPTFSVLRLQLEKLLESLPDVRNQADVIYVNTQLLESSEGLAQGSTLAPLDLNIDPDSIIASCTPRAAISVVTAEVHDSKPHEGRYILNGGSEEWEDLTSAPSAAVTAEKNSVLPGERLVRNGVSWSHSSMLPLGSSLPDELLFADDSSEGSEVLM
- PROCEDURE SUMMARY: phosphorylation enrichment, bacterial display (enrichment ratio); higher = better substrate or ligand; peptides without Tyr show the background
Recorded phosphorylation enrichment, one value per entry.
Please give the numeric answer without any surrounding text.

VLICAYLLHRG [PTEN_Y138_M134L]
0.412
PQGVRYTYTID [DCX_Y103_I104T]
0.338
HAVYVYDICHV [TWNK_Y508]
5.12
RHFTGCRIELQ [INSR_Y818_Y818C]
0.421
EDEGLYTVRVP [MYOM3_Y343_M344T]
1.84
ANNPLYKEATP [ITGB3_Y773_S778P]
0.521
ASFGPNTRVQS [FOXL2_Y258_Y258N_YF]
0.365
ARVDTYCRHNY [HLA-DRB1_Y107_A103R]
0.538

Hello, I am looking for reported phosphorylation enrichment with MERTK (UniProt Q12866) for KRLKDYLTVLQ [USP25_Y425] . Could you help?
0.352

Hello, I am looking for reported phosphorylation enrichment with MERTK (UniProt Q12866) for SLFNGYVYSGV [NEIL3_Y71] . Could you help?
0.929

Hello, I am looking for reported phosphorylation enrichment with MERTK (UniProt Q12866) for LPVHFYSHVEH [PYGM_Y204_G205S] . Could you help?
0.859

Hello, I am looking for reported phosphorylation enrichment with MERTK (UniProt Q12866) for INNIDYFKKTT [FGFR2_Y656_YF] . Could you help?
0.37

Hello, I am looking for reported phosphorylation enrichment with MERTK (UniProt Q12866) for TAGFIYEKWEI [TEC_Y360_S359I] . Could you help?
4.47

Hello, I am looking for reported phosphorylation enrichment with MERTK (UniProt Q12866) for CTTIHYNYLCN [TP53_Y234_M237L] . Could you help?
0.436

Hello, I am looking for reported phosphorylation enrichment with MERTK (UniProt Q12866) for PVLSLYASGRT [ACTA1_Y145_A140P] . Could you help?
0.752

Hello, I am looking for reported phosphorylation enrichment with MERTK (UniProt Q12866) for TINPIHEHVGY [CHN1_Y143_Y143H] . Could you help?
0.446

Hello, I am looking for reported phosphorylation enrichment with MERTK (UniProt Q12866) for GGEAIYAAPFA [Abl_opt_1995] . Could you help?
13.5

Hello, I am looking for reported phosphorylation enrichment with MERTK (UniProt Q12866) for ATVRPYRPFII [LRP5_Y1528_A1525V_YF] . Could you help?
0.395
